Test system: Escherichia coli
testSummary: Inhibition of FimC/FimH pilus assembly complex formation in Escherichia coli at 10 uM
measuredMetric: inhibition (%)

Some solved cases for reference:
{"columns": ["substance", "inhibition, %"],
 "data": [
  ["H-LTFDGTWIS-OH", 0],
  ["H-LDSTLAFIS-OH", 10],
  ["H-TVLDFDFIS-OH", 3]
]}

1. H-KVSFGLFIS-OH
2. H-NTLQLAIIS-OH
Would you kindly point out which of 1 and 2 has the smaller inhibition figure? Write the label of whichever entry you select. 2
(2: 7%, 1: 20%)

---

Test system: Escherichia coli
testSummary: Inhibition of FimC/FimH pilus assembly complex formation in Escherichia coli at 10 uM
measuredMetric: inhibition (%)

{"columns": ["substance", "unitAnnotation", "inhibition"],
 "data": [
  ["H-ADFFFHSIS-OH", "%", 2]
]}

I. H-NGFKFTWIS-OH
II. H-KDLASTLIS-OH
Name the one with the greater inhibition value, either I or II as given. Bench note: the answer is the label of the chosen record. II
(II: 16%, I: 2%)

---

System: Escherichia coli
testSummary: Inhibition of FimC/FimH pilus assembly complex formation in Escherichia coli at 50 uM
measuredMetric: inhibition (%)

Please review the following examples before continuing.
{"columns": ["substance", "unitAnnotation", "inhibition"],
 "data": [
  ["H-AKGDLLLIS-OH", "%", 13],
  ["H-NTGALDSIS-OH", "%", 11]
]}

I. H-AFSKSDFIS-OH
II. H-NGSDSHFIS-OH
III. H-LVGKSHLIS-OH
List from greatest to least inhibition. Sort the labels as requested; that list is your answer. II, III, I
(II: 19%, III: 0%, I: -9%)

A. H-NDLKGLFIS-OH
B. H-AVLASAWIS-OH
Which item exceeds the other in inhibition, A or B ? Label of pick, please. A

A. H-NTGQFAFIS-OH
B. H-NFFAGHFIS-OH
Please indicate which entry, A or B , has the lower recorded inhibition value. Reply briefly: the label of your chosen item. B
(B: 0%, A: 7%)

P. H-ATSFGHWIS-OH
Q. H-NVSTLHLIS-OH
When the recorded inhibition values are compared, which is smaller: that of P or that of Q ? // output: label of the selected item P
(P: 9%, Q: 30%)

---

System: Escherichia coli
testSummary: Inhibition of FimC/FimH pilus assembly complex formation in Escherichia coli at 50 uM
measuredMetric: inhibition (%)

Observe how each entry below is paired with its result.
{"columns": ["substance", "inhibition / %"],
 "data": [
  ["H-NKGTSDWIS-OH", 8],
  ["H-TTFTSLSIS-OH", 35],
  ["H-KKLKLHFIS-OH", 22]
]}

I. H-NTLQLAIIS-OH
II. H-AGGTGTFIS-OH
III. H-TVLDFDFIS-OH
IV. H-GGTVHFKGG-OH
Order the entries by their reported inhibition, beginning at the minimum. Put the labels in the requested order and write them down. II, IV, III, I

a. H-NGFKFTWIS-OH
b. H-NGLQGASIS-OH
When the recorded inhibition values are compared, which is smaller: that of a or that of b ? State the label of the item chosen. a
(a: -3%, b: 19%)

I. H-KVSFGLFIS-OH
II. H-NTLQLALIS-OH
III. H-KFGDLASIS-OH
IV. H-KDLASTLIS-OH
Ordering: ascending inhibition. The labels, placed in the requested order, form the answer. III, IV, I, II
